- Assay System: UniProtKB P24557
- Sequence (P24557 whole entry): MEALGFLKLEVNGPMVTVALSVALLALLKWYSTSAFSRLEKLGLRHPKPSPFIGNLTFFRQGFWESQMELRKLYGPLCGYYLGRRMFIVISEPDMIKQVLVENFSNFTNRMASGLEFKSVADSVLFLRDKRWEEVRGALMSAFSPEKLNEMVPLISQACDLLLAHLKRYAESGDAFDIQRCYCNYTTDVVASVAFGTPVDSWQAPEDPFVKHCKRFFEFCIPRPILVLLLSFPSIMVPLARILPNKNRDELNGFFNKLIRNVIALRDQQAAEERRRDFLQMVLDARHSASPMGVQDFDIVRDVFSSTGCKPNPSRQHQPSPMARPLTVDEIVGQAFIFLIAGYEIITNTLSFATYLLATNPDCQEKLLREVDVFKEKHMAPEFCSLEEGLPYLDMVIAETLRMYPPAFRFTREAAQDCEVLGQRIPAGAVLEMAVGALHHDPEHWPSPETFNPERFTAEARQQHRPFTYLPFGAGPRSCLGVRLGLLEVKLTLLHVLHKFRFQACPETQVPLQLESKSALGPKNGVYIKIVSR
- Protocol Notes: In vitro TXA2 synthase antagonism through inhibition of collagen induced thromboxane-A2 production in human citreated whole blood
Measurement Type: IC50

{"Smiles Str": "Cc1cnccc1-c1ccc(CO[C@@H]2CC[C@H](N3CCCCCC3)[C@H]2OC/C=C\\CCC(=O)O)cc1", "IC50": "1580 nM"}
{"Smiles Str": "O=C(O)CC/C=C\\CO[C@H]1[C@H](OCc2ccc(-c3cnccc3CO)cc2)CC[C@@H]1N1CCCCCC1", "IC50": "1580 nM"}

Now look at this entry.
Q. # lookup: IC50 of O=C(O)CC/C=C\CO[C@H]1[C@H](OCc2ccc(-c3cccnc3CO)cc2)CC[C@@H]1N1CCCCCC1
A. > 10000 nM

----------
- Assay System: Thromboxane A2 receptor (Rattus norvegicus, UniProt P34978)
- Sequence (P34978 whole entry): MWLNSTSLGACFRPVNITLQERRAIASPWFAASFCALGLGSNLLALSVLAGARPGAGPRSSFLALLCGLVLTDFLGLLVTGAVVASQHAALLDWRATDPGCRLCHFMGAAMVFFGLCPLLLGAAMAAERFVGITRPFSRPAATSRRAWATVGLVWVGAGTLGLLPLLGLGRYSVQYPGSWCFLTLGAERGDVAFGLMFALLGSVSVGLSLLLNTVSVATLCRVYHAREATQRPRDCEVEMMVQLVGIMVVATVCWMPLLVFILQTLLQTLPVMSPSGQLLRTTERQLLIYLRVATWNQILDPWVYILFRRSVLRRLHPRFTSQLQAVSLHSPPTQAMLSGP
- Protocol Notes: In vitro thromboxane A2 receptor antagonism through inhibition of U-46619-induced contraction of rat isolated thoracic aortic strip
- Format: functional
- Conditions Used: read-out: pA2 (converted)
# key: entry, value: Kb
Number only, in µM; omit the unit.

Sample answers from the record:
{"Smiles Str": "Cc1ccncc1-c1ccc(CO[C@@H]2CC[C@H](N3CCCCCC3)[C@H]2OC/C=C\\CCC(=O)O)cc1", "Kb [µM]": 0.0316}
{"Smiles Str": "CC(C)(C)c1ccncc1-c1ccc(CO[C@@H]2CC[C@H](N3CCCCCC3)[C@H]2OC/C=C\\CCC(=O)O)cc1", "Kb [µM]": 0.00316}
{"Smiles Str": "O=C(O)CC/C=C\\CO[C@H]1[C@H](OCc2ccc(-c3cccnc3)cc2)CC[C@@H]1N1CCCCCC1", "Kb [µM]": 0.0398}
{"Smiles Str": "O=C(O)CC/C=C\\CO[C@H]1[C@H](OCc2ccc(-c3ccncc3CO)cc2)CC[C@@H]1N1CCCCCC1", "Kb [µM]": 0.0158}

Now look at this entry.
Q. Missing value: Kb, Thromboxane A2 receptor (Rattus norvegicus, UniProt P34978), entry CCCc1ccncc1-c1ccc(CO[C@@H]2CC[C@H](N3CCCCCC3)[C@H]2OC/C=C\CCC(=O)O)cc1 . Fill in?
A. 0.0316
